The measured values listed here are drawn from patent US20250090677A1.

# STUDY SYSTEM: T1, recombinant protein CDH6 (UniProt P55285 54-615)
# T1 construct: also called CDH6 recombinant protein; CDH6 antigen
# T1 sequence (looked up): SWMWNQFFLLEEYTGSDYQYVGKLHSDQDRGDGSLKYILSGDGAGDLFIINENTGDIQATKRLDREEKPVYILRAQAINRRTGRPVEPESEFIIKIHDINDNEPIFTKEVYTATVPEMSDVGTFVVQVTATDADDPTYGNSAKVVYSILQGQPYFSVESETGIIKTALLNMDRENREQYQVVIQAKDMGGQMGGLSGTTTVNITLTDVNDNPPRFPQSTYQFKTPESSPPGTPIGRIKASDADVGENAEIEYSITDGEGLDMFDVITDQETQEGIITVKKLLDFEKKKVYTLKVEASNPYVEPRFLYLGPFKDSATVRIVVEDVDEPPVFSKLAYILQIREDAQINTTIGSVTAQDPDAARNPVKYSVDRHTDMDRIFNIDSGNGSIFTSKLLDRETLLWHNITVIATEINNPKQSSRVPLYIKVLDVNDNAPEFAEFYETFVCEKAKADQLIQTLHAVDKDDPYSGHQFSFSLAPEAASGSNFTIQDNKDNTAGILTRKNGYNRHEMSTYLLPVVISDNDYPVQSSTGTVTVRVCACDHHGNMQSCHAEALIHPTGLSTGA
# METHOD SUMMARY: ELISA, CDH6 coated; antibody 100 ng/mL
ENDPOINT NAME: OD450 (OD450)
The answer is to be given in OD450; state only the numeric part.

For this binder ( CL069066 antibody (antibody, V domains shown, Mouse monoclonal antibody from hybridoma, purified from ascites with Protein A/G; also called #4; No. 4) VH: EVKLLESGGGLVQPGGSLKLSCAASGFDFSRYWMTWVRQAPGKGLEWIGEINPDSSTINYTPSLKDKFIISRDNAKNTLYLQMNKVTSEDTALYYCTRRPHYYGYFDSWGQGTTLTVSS VL: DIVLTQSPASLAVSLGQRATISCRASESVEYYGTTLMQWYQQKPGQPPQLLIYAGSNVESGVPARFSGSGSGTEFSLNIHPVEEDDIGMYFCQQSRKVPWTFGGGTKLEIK ), measured OD450 is 2.38
